Reference for the values: PubChem BioAssay (NCI)

measurementProtocol: NCI Yeast Anticancer Drug Screen. Data for the mlh1 rad18 strain (AID 175)
conditions: S. cerevisiae mlh1 rad18 strain growth inhibition; at 50.0 µM; hits give high values
Experimental: Growth inhibition of yeast strains with defined genetic alterations is measured as a screen for potential anti-cancer activity. Selected strains with alterations in DNA damage repair or cell cycle control were exposed to compounds and growth inhibition was measured relative to vehicle treated controls. The strain used in this assay is mlh1 rad18
About 79,000 compounds went through this panel and 15% of them were active in at least one assay; those are over-represented in the sample as a whole.
attributeMeasured: growth inhibition (%)
Answers are plain numbers, in %.

# annotated cases, reported growth inhibition shown
[
  {
    "molecule": "N#Cc1ccc(OC(=O)Nc2c(Cl)cc(Cl)cc2Cl)cc1",
    "displayUnit": "%",
    "observed": 9.95
  },
  {
    "molecule": "NC(CCl)=NCC12CC3CC(CC(C3)C1)C2",
    "displayUnit": "%",
    "observed": 56.9
  },
  {
    "molecule": "CCCCCCCCCCCCCC/C=C\\C(CC(=O)O)C(=O)O (stereo not drawn)",
    "displayUnit": "%",
    "observed": -19.2
  },
  {
    "molecule": "Nc1nc(N)nc(N2CCCCC2)n1",
    "displayUnit": "%",
    "observed": -19.9
  },
  {
    "molecule": "COc1cc2c(c(OC)c1OC)-c1ccc(SC)c(=O)cc1[C@@H](NC1OC(CO)C(O)C(O)C1O)CC2 (stereo partly drawn)",
    "displayUnit": "%",
    "observed": 3.45
  },
  {
    "molecule": "Nc1nnc2cc(F)ccc2n1",
    "displayUnit": "%",
    "observed": -12.2
  }
]

For each entry beneath this line, provide reported growth inhibition.
1. OCCc1ccc(Cl)cc1
2. Oc1ccc(N=Cc2ccc(OCc3ccccc3)cc2)cc1
3. COC(=O)C1(CC(C)=O)NC(=S)NC(=O)C1C#N (stereo not drawn)
4. CN1CCCN(C(c2ccccc2)c2ccc(Br)cc2)CC1 (stereo not drawn)
5. CN1C(=O)NC(c2ccc(Cl)cc2)(c2ccc(Cl)cc2)C1=O
6. CCN(Cc1ccc(Cl)c(Cl)c1)c1ccc2nc(N)nc(N)c2c1C
7. O=C1NC(=O)C(c2ccccc2)O1 (stereo not drawn)

Solution:
1. 7.9
2. -4.1
3. -15.3
4. 46
5. 91
6. 29.9
7. 10.8
